settings: in ethyl acetate, 308.15 K

>  <compound>
Cc1c(OCC(F)(F)F)ccnc1CS(=O)c1nc2ccccc2[nH]1 (stereo unspecified)

>  <solubility (mole fraction)>
0.00343

$$$$

----------
details: in isopropanol, 318.15 K

>  <molecule>
Cc1c(OCC(F)(F)F)ccnc1CS(=O)c1nc2ccccc2[nH]1 (stereo unspecified)

>  <solubility (mole fraction)>
0.00422

$$$$

----------
conditions: in isobutyl acetate, 288.15 K

>  <compound>
Cc1c(OCC(F)(F)F)ccnc1CS(=O)c1nc2ccccc2[nH]1 (stereo unspecified)

>  <solubility (mole fraction)>
0.000965

$$$$

----------
details: in n-pentanol, 308.15 K

>  <compound>
Cc1c(OCC(F)(F)F)ccnc1CS(=O)c1nc2ccccc2[nH]1 (stereo unspecified)

>  <solubility (mole fraction)>
0.00412

$$$$
